Test Name: chemical genetic growth profiling, strain panel (AID 1159580);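 also: tested at 20 µM; growth read once vehicle control cultures reached saturation at 30 °C; 1 = growth at the plate median or of vehicle wells; lower values mean less growth of the strain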
Protocol Conditions: S. cerevisiae deletion strains, growth OD, locus YJL092W, strain hpr5, active compounds read low
Among all 5,500 compounds or so, about 2,000 (36%) were called active. Not shown: some 18% with an inconclusive outcome. Some of the results follow.
So I've got a bunch of compounds here, and I need their normalized growth values.
Answers are plain numbers.

Example results:
{"columns": ["Smiles Representation", "Endpoint Result"],
 "data": [
  ["CCCCCCCCCCC[C@@H](C[C@H]1OC(=O)[C@H]1CCCCCC)OC(=O)[C@@H](CC(C)C)NC=O", 1.04],
  ["CC1(C)S[C@@H]2[C@H](NC(=O)[C@H](N)c3ccccc3)C(=O)N2[C@H]1C(=O)O", 0.973]
]}

Now take the following compound into account.
Request: Note down normalized growth recorded for `Cc1ccc(C(=O)Nc2ccc(S(=O)(=O)O)c3cc(S(=O)(=O)O)cc(S(=O)(=O)O)c23)cc1NC(=O)c1cccc(NC(=O)Nc2cccc(C(=O)Nc3cc(C(=O)Nc4ccc(S(=O)(=O)O)c5cc(S(=O)(=O)O)cc(S(=O)(=O)O)c45)ccc3C)c2)c1`
Response: 1.02

Values from PubChem BioAssay AID1159580
